# Tested on: B. cereus ATCC 11778
# protocol summary: microbe, parasite or virus in culture
# conditions used: ATCC 11778, 18 h
Where a SMILES comes first, the peptide text is derived from it.
measure name: minimum inhibitory concentration (MIC) B. cereus ATCC 11778 (µg/mL)

CC[C@H](C)[C@H](NC(=O)[C@@H]1CCCN1C(=O)[C@H](CC(C)C)NC(=O)[C@@H]1CCCN1)C(=O)O [PLPI] (H-PLPI-OH) :: 250

(A) CC[C@H](C)[C@@H]1NC(=O)[C@H](C(C)C)NC(=O)[C@H](CC(C)C)NC(=O)[C@@H]2CCCN2C1=O [c-PLVI, cyclo-(pro-leu-val-ile)] (cyclo(PLVI))
(B) CC[C@H](C)[C@H](NC(=O)[C@@H](NC(=O)[C@H](CC(C)C)NC(=O)[C@@H]1CCCN1)C(C)C)C(=O)O [PLVI] (H-PLVI-OH)
Query block: For the pair A and B , which entry has the numerically smaller recorded minimum inhibitory concentration (MIC) B. cereus ATCC 11778? Pick one and reply with its label.
Result block: A
(A: 125 µg/mL, B: 500 µg/mL)
